Hello, the source for this data is the supplement of paper PMC12645437, in case you need it.

Biological target: T1, CRBN, Q96SW2;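 also: pooled lentiviral library of zinc finger degron-EGFP fusions in mCherry-positive Jurkat cells, FACS-sorted after compound exposure, with degron abundance counted by next-generation sequencing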
T1 chain: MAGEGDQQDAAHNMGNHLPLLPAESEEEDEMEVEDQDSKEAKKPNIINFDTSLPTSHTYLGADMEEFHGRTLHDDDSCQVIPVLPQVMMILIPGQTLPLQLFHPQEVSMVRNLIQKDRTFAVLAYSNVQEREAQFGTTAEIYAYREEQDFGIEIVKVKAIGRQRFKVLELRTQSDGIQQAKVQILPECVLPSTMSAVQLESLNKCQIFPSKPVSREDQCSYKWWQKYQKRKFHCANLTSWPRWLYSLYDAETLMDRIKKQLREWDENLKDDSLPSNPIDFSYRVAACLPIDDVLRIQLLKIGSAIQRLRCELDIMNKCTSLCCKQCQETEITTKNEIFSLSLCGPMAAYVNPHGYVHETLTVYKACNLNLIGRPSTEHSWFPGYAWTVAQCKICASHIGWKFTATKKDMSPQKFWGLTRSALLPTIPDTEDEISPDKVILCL
Assay: log2 fold change of degron read counts, EGFP-low vs EGFP+ sorted cells (limma voom), compound-induced degradation; higher = more compound-induced degradation of the degron-EGFP fusion; degrons are variants of IKZF1/3 zinc finger 2; compound dose not given here
Details: Jurkat; 18 h; compound: thalidomide
Over roughly 8,300 sequences, “log2 fold change of degron read counts, EGFP-low vs EGFP+ sorted cells (limma voom), compound-induced degradation” has its median near -1.1; the highest 2% begin near 3.2. This excerpt belongs to a sample that is enriched for the highest values.
Record form. Attribute: log2 fold change of degron read counts. Fill in for each entry.
One number for each entry.

{"Primary sequence": "FWCPICGAEFTQKGNLLRHIKL [46F_47W_49P_50I_52G_53A_54E_55F_67L_, Q9UKT9]", "log2 fold change of degron read counts": 0.113}
{"Primary sequence": "FCCPICGAQFTQKGNLLRHIKL [46F_47C_49P_50I_52G_53A_54Q_55F_67L_, Q9UKT9]", "log2 fold change of degron read counts": 1.93}
{"Primary sequence": "FNCPICGAQFTQKGNLLRHIKL [46F_47N_49P_50I_52G_53A_54Q_55F_67L_, Q9UKT9]", "log2 fold change of degron read counts": 1.1}

Q: Sample FDCPICGAQFTQKGNLLRHIKL [46F_47D_49P_50I_52G_53A_54Q_55F_67L_, Q9UKT9] — what was its log2 fold change of degron read counts?
A: 2.56
